# testSummary: Inhibition of Plasmodium falciparum recombinant GSK-3 by radiometric protein kinase assay
pIC50: −log10 of the molar value.
Answer NO if pIC50 is under 6, and YES if it is 6 or more.

Recorded results for 5 molecules are shown here.
molSmiles | groupLabel
N#Cc1c(N)nc2sc(C(=O)c3ccc(Cl)cc3)c(N)c2c1-c1ccccc1Br | NO
COc1cccc(C(=O)c2sc3nc(N)c(C#N)c(-c4ccccc4Cl)c3c2N)c1 | NO
N#Cc1c(N)nc2sc(C(=O)c3cccc(Cl)c3)c(N)c2c1-c1ccccc1Br | YES
COc1ccccc1-c1c(C#N)c(N)nc2sc(C(=O)c3cccc(Cl)c3)c(N)c12 | NO
CCOc1ccccc1-c1c(C#N)c(N)nc2sc(C#N)c(N)c12 | NO

**Q:** Reported pIC50 at or above 6? `Nc1c(C(=O)c2ccccc2)sc2nc3c(c(-c4ccccc4I)c12)CCCC3`
**A:** NO

**Q:** Reported pIC50 at or above 6? `COc1ccccc1-c1c(C#N)c(N)nc2sc(C#N)c(N)c12`
**A:** NO

**Q:** Reported pIC50 at or above 6? `Nc1c(C(=O)c2ccc(Cl)cc2)sc2nc3c(c(-c4ccccc4I)c12)CCCC3`
**A:** NO

**Q:** Reported pIC50 at or above 6? `Cc1ccc(C(=O)c2sc3nc(N)c(C#N)c(-c4ccccc4I)c3c2N)cc1`
**A:** NO

Data credit: ChEMBL document CHEMBL2311539
